The origin of these recorded values is patent US6436960B1.

Target: Ras farnesyl transferase (Homo sapiens, UniProt P49354+P49356)
Construct: made in house
Test: in vitro inhibitory activity for Ras farnesyl transferase, H-Ras substrate
Type: biochemical
Conditions: recombinant Ras farnesyl transferase, H-Ras substrate, tritium-farnesylpyrophosphate, 30 minutes at 37° C.; read-out: H-Ras IC50
IC50 strictly less than 4 nM = rule met. Otherwise rule not met.

### Prompt Given the entry COCCN(C)C(=O)c1cn(Cc2cncn2CC2CCN(Cc3ccc(Oc4ccccc4)cc3)CC2)cc1-c1cccc2ccccc12 [Compound 34] , would its reported IC50 be below 4 nM?
### Response rule not met

----------
Target: Ras farnesyl transferase (Rattus norvegicus, UniProt Q02293+Q04631)
Construct: endogenous in cells; host or cells: Rat2 fibroblasts transformed with C-Harvey-Ras, or with H-Ras carrying the K-Ras C-terminal polybasic lysine domain
Assay: in vivo (cellular) Ras farnesyl transferase inhibitory activity, Rat2 cells transformed with H-Ras fused with polybasic lysine domain of K-Ras
Format: cell-based
Conditions: Rat2 cell line transformed with H-Ras substituted with polybasic lysine domain at C-terminus of K-Ras; concentration inhibiting 50% of farnesyl binding; read-out: K-Ras CIC50
parameter: IC50

### Prompt Recorded IC50 of CN1CCN(C(=O)c2cn(Cc3cncn3CC3CCN(C(=O)N(C)Cc4ccccc4)CC3)cc2-c2cccc3ccccc23)CC1 [Compound 52] , please.
### Response 10 to 50 µM

### Prompt I am curious: what IC50 value has been reported for COC(=O)N1CCC(Cn2cncc2Cn2cc(C(=O)N3CCN(C)CC3)c(-c3cccc4ccccc34)c2)CC1 [Compound 40] ?
### Response 10 to 50 µM

### Prompt Returns the measured IC50 for the input compound. Input: O=C(OCc1ccccc1)N1CCC(Cn2cncc2Cn2cc(C(=O)N3CCOCC3)c(-c3cccc4ccccc34)c2)CC1 [Compound 1]
### Response 1 to 10 µM

----------
Molecular target: Ras farnesyl transferase (Homo sapiens, UniProt P49354+P49356)
Construct: made in house
Test: in vitro inhibitory activity for Ras farnesyl transferase, K-Ras substrate
Type: biochemical
Details: recombinant Ras farnesyl transferase, K-Ras substrate; read-out: K-Ras IC50
parameter: IC50 (nM)
Use nM as the unit, but write only the number.

CN1CCN(C(=O)c2cn(Cc3cncn3CC3CCN(Cc4ccc(Oc5ccccc5)cc4)CC3)cc2-c2cccc3ccccc23)CC1 [Compound 57]	10
CC(C)CCOC(=O)N1CCC(Cn2cncc2Cn2cc(C(=O)N3CCN(C)CC3)c(-c3cccc4ccccc34)c2)CC1 [Compound 46]	16
O=C(c1cn(Cc2cncn2CC2CCNCC2)cc1-c1cccc2ccccc12)N1CCOCC1 [Compound 2]	6000

Lab note: next compound to report on.
### Prompt If you can, please state the reported IC50 value of CN1CCN(C(=O)c2cn(Cc3cncn3CC3CCN(C(=O)COc4ccccc4)CC3)cc2-c2cccc3ccccc23)CC1 [Compound 44] .
### Response 11

----------
Molecular target: Ras farnesyl transferase (Rattus norvegicus, UniProt Q02293+Q04631)
Construct: endogenous in cells; host or cells: Rat2 fibroblasts transformed with C-Harvey-Ras, or with H-Ras carrying the K-Ras C-terminal polybasic lysine domain
Assay: in vivo (cellular) Ras farnesyl transferase inhibitory activity, Rat2 cells transformed with H-Ras fused with polybasic lysine domain of K-Ras
Assay type: cell-based
Settings: Rat2 cell line transformed with H-Ras substituted with polybasic lysine domain at C-terminus of K-Ras; concentration inhibiting 50% of farnesyl binding; read-out: K-Ras CIC50
parameter: IC50

Use these answered entries as a reference point.
CN1CCN(C(=O)c2cn(Cc3cncn3CC3CCN(C(=O)N(C)C)CC3)cc2-c2cccc3ccccc23)CC1 [Compound 53]	10 to 50 µM
COCCN(C)C(=O)c1cn(Cc2cncn2CC2CCN(Cc3ccc(Oc4ccccc4)cc3)CC2)cc1-c1cccc2ccccc12 [Compound 34]	1 to 10 µM
CCC(=O)N1CCC(Cn2cncc2Cn2cc(C(=O)N(C)CCOC)c(-c3cccc4ccccc34)c2)CC1 [Compound 18]	1 to 50 µM

Now examine the next entry.
### Prompt Which IC50 is reported for this compound? CN1CCN(C(=O)c2cn(Cc3cncn3CC3CCN(C(=O)N4CCc5ccccc5C4)CC3)cc2-c2cccc3ccccc23)CC1 [Compound 55]
### Response 10 to 50 µM

----------
Molecular target: Ras farnesyl transferase (Rattus norvegicus, UniProt Q02293+Q04631)
Construct: endogenous in cells; host or cells: Rat2 fibroblasts transformed with C-Harvey-Ras, or with H-Ras carrying the K-Ras C-terminal polybasic lysine domain
Test: in vivo (cellular) Ras farnesyl transferase inhibitory activity, Rat2 cells expressing C-Harvey-Ras
Type: cell-based
Conditions: Rat2 cell line expressing C-Harvey-Ras; concentration inhibiting 50% of farnesyl binding of Ras protein; read-out: H-Ras CIC50
pIC50: −log10 of the molar value.
parameter: pIC50

In the examples that follow, each entry is paired with its recorded pIC50.
COCCN(C)C(=O)c1cn(Cc2cncn2CC2CCN(C(=O)COc3ccccc3)CC2)cc1-c1cccc2ccccc12	7.00 to 8.00
CN1CCN(C(=O)c2cn(Cc3cncn3CC3CCN(C(=O)COc4ccccc4)CC3)cc2-c2cccc3ccccc23)CC1	7.30

Now look at this one.
### Prompt Returns the measured pIC50 for the input molecule. Input: `CCC(=O)N1CCC(Cn2cncc2Cn2cc(C(=O)N(C)CCOC)c(-c3cccc4ccccc34)c2)CC1`
### Response 7.00 to 8.00

----------
Target: Ras farnesyl transferase (Homo sapiens, UniProt P49354+P49356)
Construct: made in house
Assay: in vitro inhibitory activity for Ras farnesyl transferase, K-Ras substrate
Format: biochemical
Conditions: recombinant Ras farnesyl transferase, K-Ras substrate; read-out: K-Ras IC50
Listing of entries alongside the reported IC50.
Provide only the numeric value, understood in nM.

The cases that follow already have their IC50 on record.
CN1CCN(C(=O)c2cn(Cc3cncn3CC3CCN(C(=O)N4CCc5ccccc5C4)CC3)cc2-c2cccc3ccccc23)CC1	40
COCCN(C)C(=O)c1cn(Cc2cncn2CC2CCN(C(=O)N(C)Cc3ccccc3)CC2)cc1-c1cccc2ccccc12	6

Now, please, on to the next molecule.
### Prompt Return reported IC50; argument: `COCCN(C)C(=O)c1cn(Cc2cncn2CC2CCN(C(=O)OC/C=C/c3ccccc3)CC2)cc1-c1cccc2ccccc12`
### Response 27

----------
Molecular target: Ras farnesyl transferase (Rattus norvegicus, UniProt Q02293+Q04631)
Construct: endogenous in cells; host or cells: Rat2 fibroblasts transformed with C-Harvey-Ras, or with H-Ras carrying the K-Ras C-terminal polybasic lysine domain
Assay: in vivo (cellular) Ras farnesyl transferase inhibitory activity, Rat2 cells expressing C-Harvey-Ras
Assay type: cell-based
Conditions: Rat2 cell line expressing C-Harvey-Ras; concentration inhibiting 50% of farnesyl binding of Ras protein; read-out: H-Ras CIC50
parameter: IC50

COCCN(C)C(=O)c1cn(Cc2cncn2CC2CCN(C(=O)c3csc(C(C)C)n3)CC2)cc1-c1cccc2ccccc12	10 to 100 nM

### Prompt Reported IC50 for `COCCN(C)C(=O)c1cn(Cc2cncn2CC2CCN(C(=O)NC3CCCCC3)CC2)cc1-c1cccc2ccccc12` : what is it?
### Response 10 to 100 nM

### Prompt Any idea what IC50 was measured for `COCCN(C)C(=O)c1cn(Cc2cncn2CC2CCN(C(=O)c3ccc4ccccc4c3)CC2)cc1-c1cccc2ccccc12` ?
### Response 10 to 100 nM

### Prompt # IC50 lookup, item `COCCN(C)C(=O)c1cn(Cc2cncn2CC2CCN(S(C)(=O)=O)CC2)cc1-c1cccc2ccccc12`
### Response 10 to 100 nM

### Prompt Look up IC50 for this compound: `COCCN(C)C(=O)c1cn(Cc2cncn2CC2CCN(C(=O)OCc3ccc4ccccc4c3)CC2)cc1-c1cccc2ccccc12`
### Response 10 nM

### Prompt I am curious: what IC50 value has been reported for `COCCN(C)C(=O)c1cn(Cc2cncn2CC2CCN(Cc3ccc(-c4ccccc4)cc3)CC2)cc1-c1cccc2ccccc12` ?
### Response 10 to 100 nM

### Prompt State the recorded IC50 for this entry: `COCCN(C)C(=O)c1cn(Cc2cncn2CC2CCN(C(=O)OC/C=C(\C)CCC=C(C)C)CC2)cc1-c1cccc2ccccc12`
### Response 10 to 100 nM

### Prompt Which IC50 value belongs to `COCCN(C)C(=O)c1cn(Cc2cncn2CC2CCN(C(=O)OCCC(C)C)CC2)cc1-c1cccc2ccccc12` ?
### Response 10 to 100 nM

### Prompt Item `CC(=O)N1CCC(Cn2cncc2Cn2cc(C(=O)N3CCOCC3)c(-c3cccc4ccccc34)c2)CC1` has what recorded IC50?
### Response 10 to 100 nM

### Prompt Can you look up the measured IC50 of `COCCN(C)C(=O)c1cn(Cc2cncn2CC2CCN(C(=O)NCc3ccccc3)CC2)cc1-c1cccc2ccccc12` for me?
### Response 10 to 100 nM
